Tested on: Ps. aeruginosa (6 strains)
Procedure details: MIC by two-fold serial agar dilution, group (G-)-III
Assay type: cell-based
Test conditions: Pseudomonas aeruginosa, Mueller-Hinton agar, Example 1: two different batches, read-out: Geometric Mean of MIC (G-)-III
Sorting guide: entries reporting MIC beneath 6 mg/L go in the Y pile, the rest go in the N pile.

Task: Bench note: check whether CO/N=C(\C(=O)NC1C(=O)N2C(C(=O)[O-])=C(C[N+](C)(C)CCO)CSC12)c1csc(N)n1 (centres unmarked) shows MIC below 6 mg/L
Output: Y

Task: Please let me know if CO/N=C(\C(=O)NC1C(=O)N2C(C(=O)[O-])=C(C[N+](C)(C)Cc3cccnc3)CSC12)c1csc(N)n1 (centres unmarked) shows MIC below 6 mg/L.
Output: N

Task: # TODO verify MIC < 6 mg/L strictly for this molecule: CCO/N=C(\C(=O)NC1C(=O)N2C(C(=O)[O-])=C(C[N+](C)(C)C)CSC12)c1csc(N)n1 (centres unmarked)
Output: N

Task: Below 6 mg/L on MIC? Entry C=CC[N+](C)(C)CC1=C(C(=O)[O-])N2C(=O)C(NC(=O)/C(=N\OC)c3csc(N)n3)C2SC1 (centres unmarked)
Output: Y

Task: Hello, I'm reviewing records and need to know if MIC of CO/N=C(\C(=O)NC1C(=O)N2C(C(=O)[O-])=C(C[N+](C)(C)C)CSC12)c1csc(N)n1 (centres unmarked) is below 6 mg/L. Could you check?
Output: Y

----------
Procedure details: Mouse blood levels following a single intramuscular injection
Assay type: in vivo
Test conditions: im, mice, 20 mg/kg, 40 minutes, read-out: Blood levels at minutes after administration: 40
Metric name: concentration at 40 min (ng/mL)
Dear colleague, please return just the value in ng/mL, with no unit written.

Task: Indicate the recorded concentration at 40 min value for this compound: CO/N=C(\C(=O)NC1C(=O)N2C(C(=O)[O-])=C(C[N+](C)(C)C)CSC12)c1csc(N)n1 (stereo not shown) [Example 1]
Output: 7500

----------
Test system: Cephalothinsensitive E. coli (2 strains), Kl. pneumoniae (1 strain) and Pr. mirabilis (2 strains)
Procedure details: MIC by two-fold serial agar dilution, group (G-)-Ia
Type: cell-based
Test conditions: Mueller-Hinton agar; cephalothin-sensitive, 5 strains; Example 1: two different batches; read-out: Geometric Mean of MIC (G-)-Ia
Threshold 0.04 µg/mL. MIC below it: condition met. MIC at it or above: condition not met.

Task: Is 0.04 µg/mL strictly greater than the compound's reported MIC? compound: CCO/N=C(\C(=O)NC1C(=O)N2C(C(=O)[O-])=C(C[N+](C)(C)C)CSC12)c1csc(N)n1 (centres unmarked)
Output: condition not met

Task: Determine if C=CC[N+](C)(C)CC1=C(C(=O)[O-])N2C(=O)C(NC(=O)/C(=N\OC)c3csc(N)n3)C2SC1 (centres unmarked) shows MIC strictly lower than 0.04 µg/mL.
Output: condition not met

Task: In plain terms, does CO/N=C(\C(=O)NC1C(=O)N2C(C(=O)[O-])=C(C[N+](C)(C)CCO)CSC12)c1csc(N)n1 (centres unmarked) come in under 0.04 µg/mL for MIC?
Output: condition met

Task: Please check: MIC for CO/N=C(\C(=O)NC1C(=O)N2C(C(=O)[O-])=C(C[N+](C)(C)Cc3cccnc3)CSC12)c1csc(N)n1 (centres unmarked) , strictly under 0.04 µg/mL or not?
Output: condition not met

Task: # check: MIC < 0.04 µg/mL for CO/N=C(\C(=O)NC1C(=O)N2C(C(=O)[O-])=C(C[N+](C)(C)C)CSC12)c1csc(N)n1 (centres unmarked)
Output: condition met
